test system: MCC-13; assay: qHTS assay to identify novel small-molecules to repurpose for Merkel cell carcinoma treatment (AID 1296009); conditions: MCC and control cell lines, CellTiter-Glo viability, 72 h; series mostly up to 46 µM; also: nearly all actives have a fitted effect of over 60% in size
Records with an inconclusive call do not appear. The source made the active and inactive calls. Calls follow the shape of the dose curve; as a rule, active = well fitted inhibition curve with a large enough effect; inconclusive = small, poorly fitted or top-dose-only effect; inactive = flat fitted curve, though single readings scatter.
Your reply should match one of these outcome classes. y (active), n (inactive)

Example results:
O=C1NC(O)CCN1[C@@H]1O[C@H](CO)[C@H](O)[C@H]1O (stereo partly drawn) ... n
Cc1cc(Nc2ncc3c(n2)N(C)C(=O)N(c2cc(NC(=O)c4cccc(C(F)(F)F)c4)ccc2C)C3)n(C)n1 ... y
Nc1cccc2c1C(=O)N(C1CCC(=O)NC1=O)C2=O (stereo not drawn) ... n

Would you mind telling me which call this test gave "COc1cc(N2CCC(C(N)=O)CC2)ccc1Nc1nc(N)c(Cl)c(Nc2ccccc2S(=O)(=O)C(C)C)n1" ?
n

Would you mind telling me which call this test gave "C=CCNC1=C2C[C@@H](C)C[C@H](OC)[C@@H](O)[C@@H](C)C=C(C)[C@H](OC(N)=O)[C@@H](OC)C=CC=C(C)C(=O)NC(=CC1=O)C2=O" ?
y
